Biological target: human recombinant adrenergic α2A receptor (Homo sapiens)
Construct: expressed in transfected cells; host or cells: insect Sf9 cells
Sequence (P08913 1-465): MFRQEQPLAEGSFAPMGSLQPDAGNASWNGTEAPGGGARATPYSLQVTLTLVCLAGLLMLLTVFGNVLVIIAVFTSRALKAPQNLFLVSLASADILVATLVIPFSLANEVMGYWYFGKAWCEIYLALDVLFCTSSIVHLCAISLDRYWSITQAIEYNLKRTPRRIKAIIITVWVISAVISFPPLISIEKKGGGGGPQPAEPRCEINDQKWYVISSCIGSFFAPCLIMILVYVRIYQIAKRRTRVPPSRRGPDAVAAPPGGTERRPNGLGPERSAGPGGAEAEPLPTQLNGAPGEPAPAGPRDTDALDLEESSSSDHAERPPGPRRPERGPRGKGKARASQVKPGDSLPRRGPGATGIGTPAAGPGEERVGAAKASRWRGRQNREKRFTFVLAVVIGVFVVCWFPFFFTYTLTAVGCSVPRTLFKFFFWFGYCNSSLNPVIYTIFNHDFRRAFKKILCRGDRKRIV
Experiment: Adrenergic α2A radioligand binding ([3H]MK-912)
Details: 1 h; read-out: Percent Inhibition of ligand binding Adrenergic (1 μM ligand conc.) α2A
Catalogue of inhibition at 1 µM readings, one per entry.

Compound: CN1CCc2c(n(CC(=O)N3CCNCC3)c3ccc(Cl)cc23)C1 [Compound 55]
Study target: human recombinant adrenergic α2A receptor (Homo sapiens)
inhibition at 1 µM, %: 10

Compound: Cc1ccc2c(c1)c1c(n2C(=O)Cc2ccc(Cl)cc2)C(c2ccccc2)N(C)CC1 (stereo not shown) [Compound 163]
Study target: human recombinant adrenergic α2A receptor (Homo sapiens)
inhibition at 1 µM, %: 96

Compound: C/C(=C\n1c2c(c3cc(C)ccc31)CCN(C)C2)c1ccc(F)cc1 [Compound 91]
Study target: human recombinant adrenergic α2A receptor (Homo sapiens)
inhibition at 1 µM, %: 95

Compound: Cc1ccc2c(c1)c1c(n2CC(=O)N2CCCCC2)CN(C)CC1 [Compound 57]
Study target: human recombinant adrenergic α2A receptor (Homo sapiens)
inhibition at 1 µM, %: 4

Compound: CN1CCc2c(n(CC(C)(O)c3ccc(F)cc3)c3ccc(Cl)cc23)C1 (stereo not shown) [Compound 62]
Study target: human recombinant adrenergic α2A receptor (Homo sapiens)
inhibition at 1 µM, %: 90

Compound: CN1CCc2c(n(CCc3ccc(F)cc3)c3ccc(Cl)cc23)C1 [Compound 3]
Study target: human recombinant adrenergic α2A receptor (Homo sapiens)
inhibition at 1 µM, %: 99

Compound: C/C(=C\n1c2c(c3cc(C)ccc31)CCN(C)C2C)c1ccccc1F (stereo not shown) [Compound 166]
Study target: human recombinant adrenergic α2A receptor (Homo sapiens)
inhibition at 1 µM, %: 95

Compound: CCC1c2c(c3cc(Cl)ccc3n2/C=C(\C)c2ccc(Cl)cc2)CCN1C (stereo not shown) [Compound 100]
Study target: human recombinant adrenergic α2A receptor (Homo sapiens)
inhibition at 1 µM, %: 56

Compound: CCC1c2c(c3cc(Cl)ccc3n2CC(C)(O)c2ccc(F)cc2)CCN1C (stereo not shown) [Compound 79]
Study target: human recombinant adrenergic α2A receptor (Homo sapiens)
inhibition at 1 µM, %: 92

Compound: CN1CCc2c(n(CC(=O)O)c3ccc(Cl)cc23)C1 [Compound 52]
Study target: human recombinant adrenergic α2A receptor (Homo sapiens)
inhibition at 1 µM, %: 4

Compound: CN1CCc2c(n(CC(=O)N3CCCCC3)c3ccc(Cl)cc23)C1 [Compound 58]
Study target: human recombinant adrenergic α2A receptor (Homo sapiens)
inhibition at 1 µM, %: -12

Compound: CN1CCc2c(n(CC(=O)Nc3ccc(F)cc3)c3ccc(Cl)cc23)C1 [Compound 15]
Study target: human recombinant adrenergic α2A receptor (Homo sapiens)
inhibition at 1 µM, %: 15

Compound: CN1CCc2c(n(CCCc3ccccc3)c3ccc(Cl)cc23)C1 [Compound 29]
Study target: human recombinant adrenergic α2A receptor (Homo sapiens)
inhibition at 1 µM, %: 96

Compound: CC1CCN(C(=O)Cn2c3c(c4cc(Cl)ccc42)CCN(C)C3)CC1 [Compound 38]
Study target: human recombinant adrenergic α2A receptor (Homo sapiens)
inhibition at 1 µM, %: 15

Compound: C/C(=C\n1c2c(c3cc(C)ccc31)CCN(C)C2c1ccccc1)c1ccc(Cl)cc1 (stereo not shown) [Compound 164]
Study target: human recombinant adrenergic α2A receptor (Homo sapiens)
inhibition at 1 µM, %: 58

Compound: C/C(=C\n1c2c(c3cc(C)ccc31)CCN(C)C2)c1ccc(Cl)cc1 [Compound 97]
Study target: human recombinant adrenergic α2A receptor (Homo sapiens)
inhibition at 1 µM, %: 91

Compound: Cc1ccc2c(c1)c1c(n2/C=C/c2ccccc2)CN(C)CC1 [Compound 92]
Study target: human recombinant adrenergic α2A receptor (Homo sapiens)
inhibition at 1 µM, %: 96

Compound: CN1CCc2c(n(CC(O)c3ccccc3)c3ccc(Cl)cc23)C1 (stereo not shown) [Compound 71]
Study target: human recombinant adrenergic α2A receptor (Homo sapiens)
inhibition at 1 µM, %: 88

Compound: COC(=O)Cn1c2c(c3cc(C)ccc31)CCN(C)C2 [Compound 21]
Study target: human recombinant adrenergic α2A receptor (Homo sapiens)
inhibition at 1 µM, %: 0
